- system.name: T1, Bfl-1, Q16548
- T1 chain: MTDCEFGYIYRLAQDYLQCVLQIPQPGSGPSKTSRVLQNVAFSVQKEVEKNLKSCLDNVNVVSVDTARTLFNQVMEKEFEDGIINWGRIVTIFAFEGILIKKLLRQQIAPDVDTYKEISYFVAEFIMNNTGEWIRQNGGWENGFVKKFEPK
- test: peptide SPOT array, c-Myc-tagged receptor at 1 uM or 100 nM, anti-c-Myc-Cy3
readout.type: SPOT signal as a fraction of Bim BH3's signal on the same receptor and array

binder="AIILCNVCGNLCTDCDRFLHLHRRTK [MYCBP2]" reported_measurement=0.54
binder="SQRGTDFSVLLSSAGDSFSQFRFAEE [AVEN]" reported_measurement=0.03
binder="GSPDSMFGISLAVLLDLNQDGFPDIA [ITGA7]" reported_measurement=0.07
binder="DLSSTFVSLALRKVGDWPLSARREKG [TTC31]" reported_measurement=0.75
binder="KSRLVQQSKALKELADELQERCQRPA [TRIM58]" reported_measurement=0.11

A = RAIPIKQGILLKRSGKSLNKEWKKKY [AGAP3]
B = KKLKNLEGNELQRHLDEFLLDLGHHE [FUT8]
Q. Among A and B , whose measured SPOT signal as a fraction of Bim BH3's signal on the same receptor and array is the smaller figure? Please respond with the label that marks your chosen entry.
A. B
(B: 0.04, A: 0.52)
